Please go through the items and note down their z-score.
Assay: PSAC antagonists in infected red cells, primary screen, cell-based, P. falciparum Indochina, OD700, 1 h (AID 1154)
Settings: P. falciparum Indochina infected RBC osmotic lysis, higher = more signal, called active from +8 up or from −8 down
Calls of active or inactive are those of the source.

Query: z-score; subject: CCOC(=O)[C@H](Cc1ccccc1)NC(=O)CCC1CC(OC(=O)NCc2ccc3c(c2)OCO3)CC2(CCCC(COC(=O)NCc3cccc(C(F)(F)F)c3)O2)O1 (stereo not given in full)
-0.272 (inactive)

Item: COC(=O)[C@@]1(Cc2ccc(F)cc2)[C@H]2c3cc(C(=O)N(C)C)n(Cc4ccc(OC)c(OC)c4)c3C[C@H]2CN1C(=O)c1ccccc1
0.933 (inactive)

Okay, and COCCOC(=O)N1C(=O)[C@@]2(c3cc(C#CC4(O)CCCCCC4)ccc31)[C@H](c1ccc(OCCO)cc1)N1[C@H](c3ccccc3)[C@H](c3ccccc3)OC(=O)[C@H]1[C@@H]2C(=O)NC[C@H](O)c1ccccc1 ?
2.18 (inactive)

Would you kindly repeat that for O=C1[C@H]2[C@H]3[C@H](O)[C@H](O)CC(=NO[C@@H]4O[C@H](CO)[C@@H](O)[C@H](O)[C@H]4O)[C@@H]3CC[C@H]2C(=O)N1Cc1ccc2c(c1)OCO2 ?
5.54 (inactive)

C[C@H]1Cc2c(-c3ccccc3)nc3c(c2CO1)CN(CCOc1ccccc1)CC3 , same question.
1.65 (inactive)

Record: C[N+](C)(C)CCCCCCNC(=O)[C@@H]1C[C@@H]2C(=O)N3CCC[C@H]3C(=O)N2[C@@H]1c1cccc(OCCO)c1
5.3 (inactive)

Try this compound next: COc1ccc(-c2ccc3c(n2)CCCN3CC(O)CN2CCCc3nc(C)c(C)cc32)cc1 (stereo not given)
5.76 (inactive)

Now the same for CC(CCN1CCCCc2nc(C)c(C)cc21)=NOC(C)CN1CCCCc2nc(C)c(C)cc21 (stereo not given)
1.38 (inactive)

// same read-out, input: CC[C@@H](c1ccccc1)n1c(=O)n2n(c1=O)[C@H]1[C@H](O)[C@@H]3O[C@@H]3C(=NOCC=C(C)CCC=C(C)C)[C@H]1CC2
1.27 (inactive)

Param item: N#Cc1ccc(NN2C(C(O)c3cc(C(F)(F)F)cc(C(F)(F)F)c3)C=CC3C(=O)N(c4ccccc4)C(=O)C32)cc1 (stereo not given)
4.78 (inactive)

Same for CCOC(=O)CCN1C(=O)[C@H]2[C@H]3[C@H](O)[C@H](O)CC(=NOC[C@@H](O)COCc4ccco4)[C@H]3CC[C@H]2C1=O
0.73 (inactive)

What about CC1(C)OCC(C(O)C2=CCCCC2=O)CO1 (stereo not given) ?
0.0704 (inactive)

Now this one: CC(CCC(=O)OC[C@H]1O[C@H](C#Cc2ccccc2)C=C[C@@H]1Oc1ccc(C)cc1)=NOC[C@@H](O)COCc1ccco1
17.7 (active)

Also CC(CCN1CCc2nc(-c3ccccc3)c(-c3ccccc3)cc2C1)=NO[C@@H](C)c1cn([C@H](CO)Cc2ccccc2)nn1 , if possible.
-0.278 (inactive)

Field entry: CCCC=C(CCC)[C@@H](NC(=O)c1ccc(-c2ccccc2)cc1)c1ccc(C(=O)OC)cc1
0.626 (inactive)

Entry to check: COC(=O)C1=CCC(c2cccc(Cl)c2)O1 (stereo not given)
11.4 (active)

Continue with CC(C)C[C@@H]1NC(=O)[C@H]2C[C@@H](C(=O)O)[C@@H](c3ccc(O)cc3)N2C1=O
5.88 (inactive)

What about CCN1C(=O)[C@H]2[C@H]3[C@H](O)[C@H](O)CC(=NOCc4ccccc4)[C@@H]3CC[C@H]2C1=O ?
0.425 (inactive)

Consider next the compound CN(C)c1ccc(C(O)C2C=CC3C(=O)N(c4ccccc4)C(=O)C3N2Nc2ccccc2F)cc1 (stereo not given) in the same way.
4.37 (inactive)

Next: CC(C)(C)N1C(=O)[C@H]2[C@H]3[C@H](O)[C@H](O)CC(=NO[C@@H]4O[C@H](CO)[C@@H](O)[C@H](O)[C@H]4O)[C@@H]3CC[C@H]2C1=O
1.13 (inactive)

Record: O=C1C[C@@H](O)[C@@H](O)[C@@H]2[C@@H]3C(=O)N(Cc4ccc5c(c4)OCO5)C(=O)[C@@H]3CC[C@@H]12
4.63 (inactive)

Repeat for the following compound: O=C1[C@H]2[C@H]3[C@H](O)[C@H](O)CC(=NOCc4ccccc4)[C@@H]3CC[C@H]2C(=O)N1Cc1ccccc1
0.124 (inactive)

Now consider CCCC[C@H]1OB(O)C[C@H]2C1=C(C)C[C@H]1C(=O)N(C)C(=O)[C@H]12 and answer again.
0.39 (inactive)

Quick one: CO[C@H]1COC(=O)[C@@H]2CCCN2C(=O)CC=C[C@@H](C)[C@H](OC)COC(=O)CC=C[C@@H]1C
-0.0558 (inactive)

Try this compound too: CC(C)NC(=O)[C@@H]1c2ccccc2C(=O)N(CC23CC4CC(CC(C4)C2)C3)[C@H]1c1ccc(CO)cc1
1.63 (inactive)

Please give the result for O=C1c2ccccc2[C@@]2(Cc3ccccc3N(C3CC3)C2=O)[C@H](c2ccc(CO)cc2)N1Cc1ccccc1C(F)(F)F too.
0.949 (inactive)

Moving on to the next compound: COCCCNC(=O)[C@]1(CCC(=O)OC(C)(C)C)N=C(c2ccc(OCCCO)cc2)O[C@@H]1c1ccccc1N=[N+]=[N-]
32.7 (active)

Queued: CC(=O)OC[C@H]1O[C@H](CCON=C(C)CCC(=O)OC[C@H]2O[C@H](C#Cc3ccccc3)C=C[C@@H]2Oc2ccc(C)cc2)C=C[C@@H]1OC(C)=O
8.85 (active)

Same read-out for COCCCNC(=O)[C@@]1(CCS(=O)(=O)c2ccccc2)N=C(c2ccc(OCCCO)cc2)O[C@H]1c1ccccc1 ?
28.5 (active)

Here is the next compound: C#C[C@@H](CC)O[Si](C#Cc1ccc(Oc2ccccc2)cc1)(C(C)C)C(C)C
0.788 (inactive)
